Where these numbers come from: paper PMC9646747

Molecular target: BK channel (Slo1, mslo1 mbr5 splice variant) (Mus musculus, UniProt Q08460)
Construct: gene Kcnma1; mbr5 splice variant of mslo1
Test: inside-out patch-clamp of channels expressed in Xenopus oocytes (GV shift dose response; also outward-current block, IC50 […]), supported by mutagenesis
Assay type: cell-based
Experimental Endpoint: EC50 (nM)
Form entry: value (nM) — number only.

Please look up its EC50: COc1cc(NC(=O)[C@@H](N)CCCNC(=N)N)cc2ccccc12
2500
